biological target: T1, Recombinant Human DLL4 (R&D Systems Cat#1506-D4/CF) (human, UniProt Q9NR61 27-524); assay: ELISA on coated DLL4, 100 nM Fab
T1 construct: Bought recombinant human DLL4; also called delta-like protein 4; rHuman DLL4
readout-label: ELISA Signal [100 nM Fab]
No unit in the answer, please; the number alone is enough.

Fab VH5-51_IGHD5-18*01>3_IGHJ4*01 G100K/G104T (H:KT) & V3-4_IGLJ1*01 S96V (Fab, V domains shown, Fab format: CH1 with His6 and Flag tags, and lambda CL, from the vectors; also called G100K/G104T & S96V) VH: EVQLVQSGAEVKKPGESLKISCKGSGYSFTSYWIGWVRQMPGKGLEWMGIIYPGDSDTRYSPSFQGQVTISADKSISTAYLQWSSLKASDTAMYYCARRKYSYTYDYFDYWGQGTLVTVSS VL: QTVVTQEPSFSVSPGGTVTLTCGLSSGSVSTSYYPSWYQQTPGQAPRTLIYSTNTRSSGVPDRFSGSILGNKAALTITGAQADDESDYYCVLYMGVGISYVFGTGTKVTVL: 0.01

Prompt: Name the recorded ELISA Signal [100 nM Fab] for Fab VH5-51_IGHD5-18*01>3_IGHJ4*01 G100K/G104T (H:KT) & V3-4_IGLJ1*01 (Fab, V domains shown, Fab format: CH1 with His6 and Flag tags, and lambda CL, from the vectors; also called KT double mutant; H:KT & L:wt) VH: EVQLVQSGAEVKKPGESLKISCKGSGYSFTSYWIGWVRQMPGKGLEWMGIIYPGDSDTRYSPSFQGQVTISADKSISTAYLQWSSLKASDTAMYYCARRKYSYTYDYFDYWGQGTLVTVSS VL: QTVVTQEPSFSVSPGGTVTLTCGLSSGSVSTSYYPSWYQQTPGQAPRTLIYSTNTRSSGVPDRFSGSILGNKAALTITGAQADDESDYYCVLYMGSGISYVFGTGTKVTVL .
Response: 0.01

Prompt: Another binder to look at: Fab VH5-51_IGHD5-18*01>3_IGHJ4*01 G100K/G104T (H:KT) & V3-4_IGLJ1*01 S96A (Fab, V domains shown, Fab format: CH1 with His6 and Flag tags, and lambda CL, from the vectors; also called G100K/G104T & S96A) VH: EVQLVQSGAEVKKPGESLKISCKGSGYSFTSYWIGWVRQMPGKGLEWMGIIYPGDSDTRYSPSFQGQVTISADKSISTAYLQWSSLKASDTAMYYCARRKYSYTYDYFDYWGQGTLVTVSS VL: QTVVTQEPSFSVSPGGTVTLTCGLSSGSVSTSYYPSWYQQTPGQAPRTLIYSTNTRSSGVPDRFSGSILGNKAALTITGAQADDESDYYCVLYMGAGISYVFGTGTKVTVL
Response: 0
